src = ChEMBL document CHEMBL1122481

We begin with a simple list: items and their reported LD50.
- procedure details: Median lethal dose using 10 rats per dose.
- Type: ADME, organism-based
- condition: rat, in vivo
// return the numeric value with its unit appended

Q. Could you share which LD50 value was measured for `COc1ccc2c(c1)c(CC(=O)O)c(C)n2C(=O)c1ccc(Cl)cc1` ?
A. 19.8 mg/kg

Q. What do you have for `O=C(O)Cc1ccccc1Oc1c(Cl)c(Cl)cc(Cl)c1Cl` ?
A. 303 mg/kg
